target.desc: Inhibitor of nuclear factor kappa-B kinase subunit beta (Homo sapiens)
cond: at 1 µM
measurement.kind: inhibition (%)
# unit: % | format: bare number

Problem: Lookup: inhibition / Inhibitor of nuclear factor kappa-B kinase subunit beta (Homo sapiens) / "COC(=O)Nc1nc2cc(Oc3cccc(NC(=O)Nc4cc(C(F)(F)F)ccc4F)c3)ccc2[nH]1"
Solution: 1.91

Problem: Record lookup: for Inhibitor of nuclear factor kappa-B kinase subunit beta (Homo sapiens), what inhibition belongs to "COc1cccc(-n2ncc3c(N/N=C/c4cccc(F)c4)ncnc32)c1" ?
Solution: 0.31

Problem: Provide value of inhibition for this record tested with Inhibitor of nuclear factor kappa-B kinase subunit beta (Homo sapiens): "O=C1Nc2ccc(C(=O)c3ccco3)cc2C1=Cc1cc(Cl)c(O)c(Cl)c1"
Solution: 2.45

Problem: What inhibition appears in the records for this molecule with Inhibitor of nuclear factor kappa-B kinase subunit beta (Homo sapiens)? "CS(=O)(=O)CCN(CC#N)Cc1ccc(-c2ccc3ncnc(Nc4ccc(OCc5cccc(F)c5)c(Cl)c4)c3c2)o1"
Solution: 3.73

Problem: Observed inhibition on Inhibitor of nuclear factor kappa-B kinase subunit beta (Homo sapiens) for "NS(=O)(=O)c1cccc(-c2ccc3c(NC(=O)C4CC4)n[nH]c3c2)c1" , please.
Solution: -1.55

Problem: Query inhibition on Inhibitor of nuclear factor kappa-B kinase subunit beta (Homo sapiens) for "COc1cc2ncn(-c3cc(O[C@H](C)c4ccccc4Cl)c(C(N)=O)s3)c2cc1OC"
Solution: 6.57

Problem: Item "N#Cc1c(NC(=O)c2cccc3ccccc23)sc2c1CCCC2" with Inhibitor of nuclear factor kappa-B kinase subunit beta (Homo sapiens) - inhibition?
Solution: 2.19

Problem: Tell me reported inhibition for "CCn1c(-c2nonc2N)nc2c(N3CCCC3)nccc21" , tested with Inhibitor of nuclear factor kappa-B kinase subunit beta (Homo sapiens).
Solution: -0.76

Problem: Value wanted: inhibition (Inhibitor of nuclear factor kappa-B kinase subunit beta (Homo sapiens)) of entry "CCCN1CCC=C(c2ccc(Nc3nc(Nc4ccccc4C(N)=O)c4cc[nH]c4n3)c(C)c2)C1"
Solution: 8.74

Problem: Give the reported inhibition for "CCn1c(-c2nonc2N)nc2cnc(Oc3cccc(NC(=O)c4ccc(OCCN5CCOCC5)cc4)c3)cc21" (system: Inhibitor of nuclear factor kappa-B kinase subunit beta (Homo sapiens)).
Solution: 2.67

Problem: GET /values?readout=inhibition&system=Inhibitor of nuclear factor kappa-B kinase subunit beta (Homo sapiens)&item= "[O-][S+]1CCN(Cc2ccc(-c3ccc4ncnc(Nc5ccc(OCc6ccccc6)c(F)c5)c4c3)o2)CC1"
Solution: -0.14

Problem: Fill in the recorded inhibition for this molecule, with Inhibitor of nuclear factor kappa-B kinase subunit beta (Homo sapiens) as test system: "COc1cc2ncn(-c3cc(OCc4ccccc4Cl)c(C(N)=O)s3)c2cc1OC"
Solution: 1.01

Problem: For Inhibitor of nuclear factor kappa-B kinase subunit beta (Homo sapiens), provide inhibition of "Cc1nnc(-c2ccc(C)c(-c3ccc(C(=O)Nc4cccc(C#N)c4)cc3)c2)o1" please.
Solution: 8.71

Problem: # returns recorded inhibition (system: Inhibitor of nuclear factor kappa-B kinase subunit beta (Homo sapiens)) for "CN1CCC(C(=O)Nc2n[nH]c3nnc(-c4ccccc4)cc23)CC1"
Solution: 12.4

Problem: Lab note: need inhibition with Inhibitor of nuclear factor kappa-B kinase subunit beta (Homo sapiens) for entry "Fc1cccc(COc2ccc(Nc3ncnc4cc(-c5ccc[nH]5)sc34)cc2Cl)c1" , please look it up.
Solution: 1.35

Problem: Lab note: need inhibition for "CC(=O)Nc1cccc(C#Cc2cncnc2Nc2ccc(OCc3cccc(F)c3)c(Cl)c2)n1" on Inhibitor of nuclear factor kappa-B kinase subunit beta (Homo sapiens), anyone have it?
Solution: 2.94

Problem: Any idea what inhibition came out for "COc1ccc(-c2ccncc2)cc1C(N)=O" on Inhibitor of nuclear factor kappa-B kinase subunit beta (Homo sapiens)?
Solution: 7.06

Problem: Lab note: need inhibition for "Cc1cccc(-c2n[nH]cc2-c2ccc3ncccc3n2)n1" on Inhibitor of nuclear factor kappa-B kinase subunit beta (Homo sapiens), anyone have it?
Solution: 0.63

Problem: Quick check: inhibition on Inhibitor of nuclear factor kappa-B kinase subunit beta (Homo sapiens), item "COc1cc2ncn(-c3cc(O[C@@H](C)c4ccccc4Cl)c(C(N)=O)s3)c2cc1OC" ?
Solution: 4.88

Problem: Checklist item: inhibition tested on Inhibitor of nuclear factor kappa-B kinase subunit beta (Homo sapiens), entry "NC(=O)c1cccc(Nc2nccc(Nc3cccc4[nH]ncc34)n2)c1" , value?;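 note: reported as mean inhibition, from the GSK PKIS screening set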
Solution: 17.4

Data provenance is ChEMBL document CHEMBL1961873.
